Target: T1, MaturePDGF-β_NterminalPeptide
T1 construct: an N-terminal G was added and is left out of the numbering; also called PDGF-β peptide
T1 peptide: RhodamineB-GSLGSLTIAEPAMIAE
Assay: fluorescence anisotropy; 20 nM rhodamine PDGF-β N-terminal peptide, unlabeled RPtag large variant titrated; bar of Ka = 1/Kd, left axis
No end group written: not given here. *: point of attachment. RhodamineB = CCN(CC)c1ccc2c(-c3ccccc3C(=O)*)c3ccc(=[N+](CC)CC)cc-3oc2c1

{"binder": "a253r (designed binder, also called RPtag(large) A253R) single chain: MGSSCHHHHHHSQDPNSSSMKEGKTIGLVISTLNNPFFVTLKNGAEEKAKELGYKIIVEDSQNDSSKELSNVEDLIQQKVDVLLINPVDSDAVVTAIKEANSKNIPVITIDRSANGGDVVSHIASDNVKGGEMAAEFIAKALKGKGNVVELEGIPGASAARDRGKGFDEAIAKYPDIKIVAKQAADFDRSKGLSVMENILQAQPKIDAVFAQNDEMALGAIKAIEAANRQGIIVVGFDGTEDALKAIKEGKMRATIAQQPALMGSLGVEMADKYLK", "binding result": "binds"}
{"binder": "h122a (designed binder, also called RPtag(large) H122A) single chain: MGSSCHHHHHHSQDPNSSSMKEGKTIGLVISTLNNPFFVTLKNGAEEKAKELGYKIIVEDSQNDSSKELSNVEDLIQQKVDVLLINPVDSDAVVTAIKEANSKNIPVITIDRSANGGDVVSAIASDNVKGGEMAAEFIAKALKGKGNVVELEGIPGASAARDRGKGFDEAIAKYPDIKIVAKQAADFDRSKGLSVMENILQAQPKIDAVFAQNDEMALGAIKAIEAANRQGIIVVGFDGTEDALKAIKEGKMAATIAQQPALMGSLGVEMADKYLK", "binding result": "binds"}
{"binder": "f137e (designed binder, single mutant of RPtag large; also called RPtag(large) F137E) single chain: MGSSCHHHHHHSQDPNSSSMKEGKTIGLVISTLNNPFFVTLKNGAEEKAKELGYKIIVEDSQNDSSKELSNVEDLIQQKVDVLLINPVDSDAVVTAIKEANSKNIPVITIDRSANGGDVVSHIASDNVKGGEMAAEEIAKALKGKGNVVELEGIPGASAARDRGKGFDEAIAKYPDIKIVAKQAADFDRSKGLSVMENILQAQPKIDAVFAQNDEMALGAIKAIEAANRQGIIVVGFDGTEDALKAIKEGKMAATIAQQPALMGSLGVEMADKYLK", "binding result": "binds"}
